Biological target: Collagenase 3 (Homo sapiens, UniProt P45452)
Assay: Inhibition of human recombinant MMP-13 using Mca-Lys-Pro-Leu-GlyLeu-Dpa-Ala-Arg-NH2 as substrate preincubated for 30 mins followed by substrate addition by fluorescence based analysis
quantity kind: IC50 (µM)

Use the examples below as a reference point.
// query Identify measured IC50 corresponding to `COc1ccc(CNC(=O)c2nc3ccc(F)c(OCCF)c3c(=O)[nH]2)cc1`
// result 0.127

// query Identify measured IC50 corresponding to `Cc1cc(CNC(=O)c2nc3ccc(F)c(OCCF)c3c(=O)[nH]2)ccc1F`
// result 0.016

// query Identify measured IC50 corresponding to `COc1ccc(CCOc2c(F)ccc3nc(C(=O)NCc4ccc(OC)cc4)[nH]c(=O)c23)cc1`
// result 0.113

// query Identify measured IC50 corresponding to `Cc1cc(CNC(=O)c2nc3ccc(F)c(OCCc4ccc(O)cc4)c3c(=O)[nH]2)ccc1F`
// result 0.012

A. COc1ccc(CNC(=O)c2nc3ccc(F)c(OCCc4ccc(O)cc4)c3c(=O)[nH]2)cc1
B. O=C(NCc1cccc(O)c1)c1nc2ccc(F)c(F)c2c(=O)[nH]1
// query Among A and B , which shows a numerically higher IC50 result? Write the label of whichever entry you select.
// result B
